Origin of the recorded values: patent US20070161623A1

biological target: FXa (Homo sapiens)
Sequence (P00742 235-488 limits assumed): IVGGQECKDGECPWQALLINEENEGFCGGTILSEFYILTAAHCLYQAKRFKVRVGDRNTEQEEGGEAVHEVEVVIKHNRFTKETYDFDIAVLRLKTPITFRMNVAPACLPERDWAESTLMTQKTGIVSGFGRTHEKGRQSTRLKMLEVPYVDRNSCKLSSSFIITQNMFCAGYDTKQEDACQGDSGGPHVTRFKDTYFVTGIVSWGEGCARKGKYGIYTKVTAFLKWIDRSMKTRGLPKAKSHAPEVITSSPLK
Sequence (P00742 41-179 limits assumed): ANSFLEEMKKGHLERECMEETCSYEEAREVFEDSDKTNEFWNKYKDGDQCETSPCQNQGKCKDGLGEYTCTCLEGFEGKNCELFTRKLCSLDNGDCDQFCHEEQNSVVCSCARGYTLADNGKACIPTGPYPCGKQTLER
readout.type: IC50 (nM)
Give bare numbers, in nM.

Tell me the measured IC50 of `Cc1cc(NC(=O)Nc2cc(O)ccc2NC(=O)Nc2ccc(Cl)cc2)ccc1N1CCOCC1=O` , please.
12
